Please respond with reported melting point for every item in the list.

(Q) Supply melting point value. Item: NC1CCN(c2ccc3c(=O)n(N)c(=O)n(C4CC4)c3c2F)C1.O=C(O)C(F)(F)F (stereo not shown)
(A) 210 to 212 °C

(Q) Supply melting point value. Item: COc1c(N2C[C@@H](CN)[C@H](C(F)(F)F)C2)c(F)cc2c(=O)n(N)c(=O)n(C3CC3)c12.Cl (relative stereo)
(A) 205 to 207 °C

(Q) Supply melting point value. Item: COc1c(N2CC(N)C(F)C2)c(F)cc2c(=O)n(N)c(=O)n(C3CC3)c12.Cl (stereo not shown)
(A) > 250 °C

(Q) Supply melting point value. Item: Cc1c(F)c(N2CC[C@H]([C@@H](C)N)C2)cc2c1c(=O)n(N)c(=O)n2C1CC1.Cl
(A) 245 to 247 °C
